Assign Ki to each entry below.
target_desc: α3β2 nAChR subtype (Rattus norvegicus, UniProt P04757+P12390)
Construct: expressed in transfected cells
Sequence (P12390 25-500): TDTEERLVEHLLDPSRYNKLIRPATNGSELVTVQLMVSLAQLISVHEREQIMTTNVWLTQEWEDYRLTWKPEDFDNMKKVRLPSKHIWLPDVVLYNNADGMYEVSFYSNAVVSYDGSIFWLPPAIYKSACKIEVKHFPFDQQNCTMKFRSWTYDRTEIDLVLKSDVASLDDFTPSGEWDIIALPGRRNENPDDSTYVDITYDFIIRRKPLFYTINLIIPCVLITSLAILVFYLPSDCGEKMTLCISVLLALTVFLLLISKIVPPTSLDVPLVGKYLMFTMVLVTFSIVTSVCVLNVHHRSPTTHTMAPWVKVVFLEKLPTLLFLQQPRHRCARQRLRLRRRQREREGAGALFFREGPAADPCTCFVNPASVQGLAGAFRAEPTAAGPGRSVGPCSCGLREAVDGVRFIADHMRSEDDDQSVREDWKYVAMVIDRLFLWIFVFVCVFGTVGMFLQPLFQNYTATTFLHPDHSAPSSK
Sequence (P04757 26-499): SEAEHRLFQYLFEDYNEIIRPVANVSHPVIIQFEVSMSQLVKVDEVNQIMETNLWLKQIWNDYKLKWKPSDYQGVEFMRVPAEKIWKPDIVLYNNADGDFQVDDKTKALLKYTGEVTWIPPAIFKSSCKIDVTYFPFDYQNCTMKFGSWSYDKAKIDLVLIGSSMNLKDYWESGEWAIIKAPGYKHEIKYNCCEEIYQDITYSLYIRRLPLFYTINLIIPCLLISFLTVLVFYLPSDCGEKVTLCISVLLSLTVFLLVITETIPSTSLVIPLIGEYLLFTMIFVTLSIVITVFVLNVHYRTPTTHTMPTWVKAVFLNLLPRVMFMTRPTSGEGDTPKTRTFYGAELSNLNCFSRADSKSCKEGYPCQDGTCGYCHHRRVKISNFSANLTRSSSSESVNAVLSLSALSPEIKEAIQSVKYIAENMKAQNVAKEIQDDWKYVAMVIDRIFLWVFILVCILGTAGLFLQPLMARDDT
test: biochemical
Type: binding
condition_info: Ki α3β2, Table 6; [3H]-EB 0.099 nM, 0.091 nM; ligand 0.00197-100 μM; n = 1
Give bare numbers, in nM.

# compound, recorded_value
records = [
    ("CN1CCC[C@H]1COc1cccnc1 [Ligand 8, reference compound]", 9.04),
]

Prompt line: Requested field: Ki. Item: c1cncc(OC[C@@H]2CCN2)c1 [Ligand A-85380, reference compound]
Response line: 0.208

###

target_desc: α3β2 nAChR subtype (Rattus norvegicus, UniProt P04757+P12390)
Construct: expressed in transfected cells
test: biochemical
Type: binding
condition_info: read-out: Ki α3β2; Table 5; rat nAChR subtypes
quantity: Ki (nM)
Give bare numbers, in nM.

Prompt line: Recorded Ki for "CN1CCC[C@H]1COc1cncc(C#CCNC(=O)OC(C)(C)C)c1" , please?
Response line: 7.27

###

target_desc: α2β4 nAChR subtype (Rattus norvegicus, UniProt P12389+P12392)
Construct: expressed in transfected cells
Sequence (P12389 28-511): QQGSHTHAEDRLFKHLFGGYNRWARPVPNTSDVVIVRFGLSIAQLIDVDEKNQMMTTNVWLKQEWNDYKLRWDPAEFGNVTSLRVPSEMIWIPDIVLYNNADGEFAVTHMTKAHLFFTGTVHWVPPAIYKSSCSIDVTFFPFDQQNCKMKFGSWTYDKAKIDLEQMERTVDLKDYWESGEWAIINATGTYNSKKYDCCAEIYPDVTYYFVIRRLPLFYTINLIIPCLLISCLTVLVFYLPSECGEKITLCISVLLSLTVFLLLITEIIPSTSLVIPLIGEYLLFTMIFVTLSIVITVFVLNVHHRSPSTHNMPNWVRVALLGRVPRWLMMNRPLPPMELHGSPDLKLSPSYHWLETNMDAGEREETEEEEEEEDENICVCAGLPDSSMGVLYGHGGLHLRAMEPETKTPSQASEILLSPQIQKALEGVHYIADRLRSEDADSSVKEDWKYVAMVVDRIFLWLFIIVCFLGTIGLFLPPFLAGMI
Sequence (P12392 21-495): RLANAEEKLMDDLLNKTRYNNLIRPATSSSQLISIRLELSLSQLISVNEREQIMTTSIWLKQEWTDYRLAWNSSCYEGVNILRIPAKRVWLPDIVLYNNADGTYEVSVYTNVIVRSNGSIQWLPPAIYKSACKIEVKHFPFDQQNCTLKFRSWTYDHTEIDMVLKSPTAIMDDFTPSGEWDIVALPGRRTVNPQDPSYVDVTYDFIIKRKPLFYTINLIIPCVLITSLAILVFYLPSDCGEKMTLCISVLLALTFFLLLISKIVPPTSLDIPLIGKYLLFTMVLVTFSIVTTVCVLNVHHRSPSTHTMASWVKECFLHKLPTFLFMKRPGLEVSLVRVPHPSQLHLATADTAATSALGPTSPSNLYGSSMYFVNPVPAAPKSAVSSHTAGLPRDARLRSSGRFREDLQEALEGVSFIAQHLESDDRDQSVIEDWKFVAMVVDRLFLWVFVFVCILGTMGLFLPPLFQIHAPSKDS
test: biochemical
Format: binding
condition_info: Table 6; [3H]-EB 0.099 nM, 0.091 nM; ligand 0.00197-100 μM; n = 1; read-out: Ki α2β4
quantity: pKi
Numbers only, as −log10 of the molar value.

Completed entries (count: 5):
# given_smiles, pKi
data = [
    ("CN1CCC[C@H]1COc1cncc(C#CC(C)(C)O)c1", 5.23),
    ("C#Cc1cncc(OC[C@@H]2CCCN2C)c1", 6.36),
    ("CN1CCC[C@H]1COc1cncc(CCCCCCO)c1", 5.94),
    ("CN1CCC[C@H]1COc1cncc(C#CCCCCCCCCO)c1", 5.11),
    ("CN1CCC[C@H]1COc1cncc(C#CCO)c1", 5.73),
]

Now consider the entry below.
Prompt line: Could you share which pKi value was measured for "CN1CCC[C@H]1COc1cncc(C#CCCCCO)c1" ?
Response line: 5.49

###

target_desc: α2β2 nAChR subtype (Rattus norvegicus, UniProt P12389+P12390)
Construct: expressed in transfected cells
Sequence (P12389 28-511, one chain of several): as the sequence (P12389 28-511) above
test: biochemical
Format: binding
condition_info: Table 6; [3H]-EB 0.099 nM, 0.091 nM; ligand 0.00197-100 μM; n = 1; read-out: Ki α2β2
Label MET when Ki < 3 nM; otherwise NOT MET.

# molecule, assigned_class
measured = [
    ("CN1CCC[C@H]1COc1cncc(C#CCCCCO)c1 [Ligand 16]", "MET"),
    ("CN1CCC[C@H]1COc1cncc(C#CCO)c1 [Ligand 14]", "MET"),
    ("C#Cc1cncc(OC[C@@H]2CCCN2C)c1 [Ligand 18]", "MET"),
    ("CN1CCC[C@H]1COc1cncc(C#CC(C)(C)O)c1 [Ligand 15]", "MET"),
    ("CN1CCC[C@H]1COc1cncc(C#CCCCCCCCCO)c1 [Ligand 17]", "NOT MET"),
]

Prompt line: Does the reported Ki of the following molecule sit strictly below 3 nM? CN1CCC[C@H]1COc1cncc(CCCCCCO)c1 [Ligand 19]
Response line: NOT MET

###

target_desc: α3β2 nAChR subtype (Rattus norvegicus, UniProt P04757+P12390)
Construct: expressed in transfected cells
test: biochemical
Format: binding
condition_info: Table 3; mean of 3 independent measurements; read-out: Ki α3β2
quantity: pKi
Answers are plain numbers, as −log10 of the molar value.

# compound, recorded_value
records = [
    ("FCCCCC#Cc1cncc(OC[C@@H]2CCCN2)c1 [Ligand 42]", 8.28),
]

// below: pKi requested for another compound
Prompt line: For OCCCCC#Cc1cncc(OC[C@@H]2CCCN2)c1 [Ligand 27] , what is its reported pKi?
Response line: 8.57
